- systemName: cyclophilin B (CypB) (Homo sapiens (Human))
- Sequence (P23284 34-216): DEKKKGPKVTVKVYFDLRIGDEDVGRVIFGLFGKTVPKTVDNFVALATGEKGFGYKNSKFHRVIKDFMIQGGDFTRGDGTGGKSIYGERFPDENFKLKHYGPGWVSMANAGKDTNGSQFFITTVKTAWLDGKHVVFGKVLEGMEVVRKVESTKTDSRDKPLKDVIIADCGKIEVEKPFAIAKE
- assayMethodText: Inhibitor binding to cyclophilin proteins by SPR, CypB
- Parameters: unit not given here
- testContext: 1:1 binding model
- Description: Method 1: Measuring Inhibitor Binding to Cyclophilin Proteins Binding of inhibitors to expressed cyclophilins was determined using surface plasmon resonance (SPR) experiments. Briefly, avi-tagged cyclophilin proteins with mono-biotinylation were immobilized onto a Biotin CAPture chip (GE Healthcare, cat. #28920234). […] Data was analyzed using Biacore T200 Evaluation Software Version 1.0 and a 1:1 binding model was applied to fit the data to obtain kon, koff, and KD.
Starred links: 1 amine or outer side, 2 acyl side, 3 side chain; linkers in the order of their positions; H or OH if unused. Non-standard residues stand in square brackets, D forms with d. Residues, ends and D or L forms follow the SMILES beside them. X48 = C[C@@H](CN1CCN(S(C)(=O)=O)CC1)[C@@H](C(=O)[*:2])N(C)[*:1]; X3 = C[C@H](CN1CCOCC1)[C@@H](C(=O)[*:2])N(C)[*:1]; MeBmt = C/C=C/C[C@@H](C)[C@@H](O)[C@H](NC)C(=O)O; NMeL = CN[C@@H](CC(C)C)C(=O)O; NMeV = CN[C@H](C(=O)O)C(C)C; dNMeA = CN[C@H](C)C(=O)O; Abu = CC[C@H](N)C(=O)O
quantity: CypB Kd
# output: bare number, no unit

Value lookup for CypB Kd; key = C/C=C/C[C@@H](C)[C@@H](O)[C@H]1C(=O)N[C@@H](CC)C(=O)N(C)[C@H](C)C(=O)N(C)[C@@H]([C@H](C)COCCN2CCN3C(=O)OC[C@@H]3C2)C(=O)N[C@@H](C(C)C)C(=O)N(C)[C@@H](CC(C)C)C(=O)N[C@@H](C)C(=O)N[C@H](C)C(=O)N(C)[C@@H](CC(C)C)C(=O)N(C)[C@@H](CC(C)C)C(=O)N(C)[C@@H](C(C)C)C(=O)N1C
0.6

Value lookup for CypB Kd; key = C/C=C/C[C@@H](C)[C@@H](O)[C@H]1C(=O)N[C@@H](CC)C(=O)N(C)[C@H](C)C(=O)N(C)[C@@H]([C@H](C)CN2CCOCC2)C(=O)N[C@@H](C(C)C)C(=O)N(C)[C@@H](CC(C)C)C(=O)N[C@@H](C)C(=O)N[C@H](C)C(=O)N(C)[C@@H](CC(C)C)C(=O)N(C)[C@@H](CC(C)C)C(=O)N(C)[C@@H](C(C)C)C(=O)N1C [Compound 2.5.2] (cyclo(A[dA][NMeL][NMeL][NMeV][MeBmt][Abu][dNMeA][X3]V[NMeL]))
2.9

Value lookup for CypB Kd; key = C/C=C/C[C@@H](C)[C@@H](O)[C@H]1C(=O)N[C@@H](CC)C(=O)N(C)[C@H](C)C(=O)N(C)[C@@H]([C@@H](C)CN2CCN(S(C)(=O)=O)CC2)C(=O)N[C@@H](C(C)C)C(=O)N(C)[C@@H](CC(C)C)C(=O)N[C@@H](C)C(=O)N[C@H](C)C(=O)N(C)[C@@H](CC(C)C)C(=O)N(C)[C@@H](CC(C)C)C(=O)N(C)[C@@H](C(C)C)C(=O)N1C [Compound 2.17.9] (cyclo(A[dA][NMeL][NMeL][NMeV][MeBmt][Abu][dNMeA][X48]V[NMeL]))
0.6
